experimental_protocol: Pharmacokinetic properties in dogs
Type: in vivo
assay_conditions: dog, po; male Beagle dogs, 3 mg/kg p.o., plasma
// values below are reported AUC(0-t)
Numeric only. Scale: ng·h/mL

Worked cases, answers included:
compound="CCN1CCC(N2CCN(c3ccc(Nc4ncc5sc(C(=O)N(C)C)c(C6CCCC6)c5n4)nc3)CC2)CC1 [Example 2]" value_reported=2500
compound="CN1CCN(c2ccc(Nc3ncc4sc(C(=O)N(C)C)c(C5CCCC5)c4n3)nc2)CC1 [Reference Compound 1, reference compound]" value_reported=83
compound="CCN1CCN(C2CCN(c3ccc(Nc4ncc5sc(C(=O)N(C)C)c(C6CCCC6)c5n4)nc3)CC2)CC1 [Example 6]" value_reported=5030

Exercise: Read off the recorded AUC(0-t) for CN1CCN(C2CCN(c3ccc(Nc4ncc5sc(C(=O)N(C)C)c(C6CCCC6)c5n4)nc3)CC2)CC1 [Example 5]
Key: 4660
